These measurements were taken from patent US10577336B2.

# Tested System: human Somatostatin 4 receptor (hSSTR4) (Homo sapiens (Human))
# Sequence (P31391 whole entry): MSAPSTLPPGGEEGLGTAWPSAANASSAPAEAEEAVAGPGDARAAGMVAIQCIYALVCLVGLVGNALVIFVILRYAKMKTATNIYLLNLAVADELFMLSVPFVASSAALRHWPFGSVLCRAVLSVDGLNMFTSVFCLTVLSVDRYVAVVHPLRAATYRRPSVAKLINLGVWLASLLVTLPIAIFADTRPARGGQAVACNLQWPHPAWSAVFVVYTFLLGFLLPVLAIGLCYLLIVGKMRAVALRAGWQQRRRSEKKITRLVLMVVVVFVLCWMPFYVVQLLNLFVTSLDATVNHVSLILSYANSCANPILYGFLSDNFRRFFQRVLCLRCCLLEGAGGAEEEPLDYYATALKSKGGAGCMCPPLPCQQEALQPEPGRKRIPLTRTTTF
# Experiment Description: cAMP assay with human somatostatin 4 receptor (inhibition of forskolin-stimulated cAMP, hSSTR4 expressing H4 cells)
# Assay Context: read-out: SSTR4 agonism EC50
Label yes (1) when EC50 is strictly below 20 nM; at or above that, label no (0).

CC(C)(NC(=O)C1CNCCOC1)c1noc2c(Cl)cccc12 (racemic) [Example 72]
yes (1)

Record Cn1nc(C(C)(C)NC(=O)C2CNCCOC2)c2cccc(F)c21 (racemic) [Example 76] : is its EC50 strictly below 20 nM? yes (1)

Same for COc1cccn2c(C(C)(C)NC(=O)[C@@H]3CNCCO3)ncc12 [Example 99] no (0)
